Test system: wheat, winter
assay.overview: Test C preemergence
Format: in vivo, Triticum aestivum
condition.context: 125 g ai/ha, preemergence; scale 0 (no effect) to 100 (complete control)
quantity.kind: Wheat plant response rating

1) FCc1cccc(Oc2ncc(F)cn2)c1-n1cc(C(F)(F)F)cn1 : 90
2) CCOc1cnn(-c2c(C#N)cccc2Oc2ncc(Cl)cn2)c1 : 80
3) Cc1cnc(Oc2cccc(C#N)c2-n2cc(I)cn2)nc1 : 0
4) N#Cc1cccc(Oc2ncc(F)cn2)c1-n1cc(Cl)cn1 : 5
5) FC(F)(F)c1cnn(-c2c(Cl)cccc2Oc2ncc(Cl)cn2)c1 : 50
6) N#Cc1cnn(-c2c(Oc3ncc(Cl)cn3)cccc2C(F)F)c1 : 60
7) FC(F)(F)c1cnn(-c2ccccc2Oc2ncc(Cl)cn2)c1 : 35
8) N#Cc1cn(-c2c(Br)cccc2Oc2ncc(Cl)cn2)nn1 : 5

###

Tested on: waterhemp
assay.overview: Test C postemergence
Assay type: in vivo, Amaranthus rudis
condition.context: Postemergence, 62 g ai/ha; scale 0 to 100 (0 no effect, 100 complete control)
quantity.kind: Plant response rating, Waterhemp

1) N#Cc1cccc(Oc2ncc(F)cn2)c1-n1cc(Br)cn1 : 60
2) FCc1cccc(Oc2ncc(Cl)cn2)c1-n1cc(Br)cn1 : 70
3) Clc1cnc(Oc2cccc(Br)c2-n2cc(Br)nn2)nc1 : 65
4) FCc1cn(-c2c(F)cccc2Oc2ncc(Cl)cn2)nn1 : 65
5) N#Cc1cn(-c2c(Br)cccc2Oc2ncc(Cl)cn2)nn1 : 80

###

System: blackgrass
assay.overview: Test D preemergence
Format: in vivo, Alopecurus myosuroides
condition.context: Alopecurus myosuroides, pre-emergence, 31 g ai/ha, scale 0-100, read-out: Plant response rating, Blackgrass
quantity.kind: pest or weed control at 31 g/ha (%)

1. FC(F)(F)c1cnn(-c2ccccc2Oc2ncc(Br)cn2)c1 : 5
2. Fc1cccc(Oc2ncc(Cl)cn2)c1-n1cc(Br)cn1 : 10
3. FC(F)(F)COc1cnn(-c2ccccc2Oc2ncc(Cl)cn2)c1 : 0
4. FC(F)(F)c1cn(-c2ccccc2Oc2ncc(Cl)cn2)nn1 : 55
5. Clc1cnc(Oc2ccccc2-n2cc(Br)cn2)nc1 : 0

###

Test system: Italian ryegrass
assay.overview: Test A preemergence
Format: in vivo, Lolium multiflorum
condition.context: 1000 g ai/ha, 0 to 100 scale, 0 no effect, 100 complete control, approx. 10 days
Ryegrass, Italian plant response rating values by entry
quantity.kind: Ryegrass, Italian plant response rating

1. Fc1cccc(Oc2ncc(Cl)cn2)c1-n1cc(C2CC2)nn1 [Compound 155] : 60
2. NC(=O)c1cnn(-c2ccccc2Oc2ncc(Cl)cn2)c1 [Compound 281] : 10
3. FC(F)(F)c1cnn(-c2c(Oc3ncc(Cl)cn3)cccc2-c2nnco2)c1 [Compound 298] : 50
4. CCOC(=O)c1cn(-c2ccccc2Oc2ncc(Cl)cn2)nn1 [Compound 302] : 0

###

Plant response rating, Ryegrass, Italian values by entry
Tested on: Italian ryegrass
assay.overview: Test A preemergence
Assay type: in vivo, Lolium multiflorum
condition.context: 31 g ai/ha, 0 to 100 scale where 0 is no effect and 100 is complete control, visual, approximately 10 days
Excerpt: […]
quantity.kind: Plant response rating, Ryegrass, Italian

1. N#Cc1cccc(Oc2ncc(Cl)cn2)c1-n1cnc(C(F)(F)F)c1 [Compound 252] : 20
2. CC(C)Oc1cnn(-c2c(C#N)cccc2Oc2ncc(Br)cn2)c1 [Compound 254] : 0
3. Cc1cc(C(F)F)nn1-c1ccccc1Oc1ncc(Cl)cn1 [Compound 267] : 0
4. Fc1cnc(Oc2ccccc2-n2cc(OCC(F)(F)F)cn2)nc1 [Compound 241] : 0

Where these numbers come from: patent US9695155B2
